Values were extracted from PubChem BioAssay (NCI).

# PROCEDURE SUMMARY: NCI Yeast Anticancer Drug Screen. Data for the sgs1 mgt1 strain (AID 161);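 also: 0% = growth of cultures given vehicle only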
# TEST CONTEXT: S. cerevisiae sgs1 mgt1 strain, at 5.0 µM (retest, dose inferred, filed as 0.5)
This is part of a sample that, as a whole, favours compounds with a hit. Of some 79,000 tested, about 15% had one in any assay. Calls of active or inactive are those of the source. Rule as the data show it: active = growth inhibition above about 70%; inactive = the rest.
Outcomes: 1 (yes) = active, 0 (no) = inactive

• CNP1(=O)OC(c2ccccc2)=CCN1CCCl (stereo not given) = 0 (no)
• O=C([CH-]C(=O)c1ccccc1)c1ccccc1.O=C([CH-]C(=O)c1ccccc1)c1ccccc1.O=C([CH-]C(=O)c1ccccc1)c1ccccc1.[Cl-].[Zr+4] = 0 (no)
• CC(=O)c1cc2c(cc1O)C(C)(C)CCC2(C)C = 0 (no)
• O=[N+]([O-])c1ccc([N+](=O)[O-])c2nsnc12 = 0 (no)
• Cc1nnc2n1-c1ccc(Cl)cc1C(c1ccccc1)=[N+]([O-])C2 = 0 (no)
• CC(=O)c1ccccc1O.CO.CO.[Cl][Ta][Cl] = 0 (no)
• COC1OCCC[CH]1[Hg][Cl] (stereo not given) = 1 (yes)
• C(=P(c1ccccc1)(c1ccccc1)c1ccccc1)[P+](c1ccccc1)(c1ccccc1)c1ccccc1.[Cl][Fe]([Cl])([Cl])[Br] = 1 (yes)
• CC/C(=C/c1ccc(OC)cc1OC)[N+](=O)[O-] = 0 (no)
• CC(CCC/C=C/CCCN(C)C(=N)N)CC(C)C1OC(=O)C(C)C(O)/C=C/C(C)C(O)C(C)C(O)C(C)C(O)CCCC(O)CC2(O)OC(CC(OC(=O)CC(=O)O)CC(O)CC(O)C(C)C(O)/C=C/C=C/C1C)CC(O)C2O (stereo not given) = 0 (no)
• CN(C)c1ncnc2c1ncn2C1OC(CO)C2NP(=O)(N(CCCl)CCCl)OC21 (stereo not given) = 0 (no)
• O=[N+]([O-])/C=C/c1ccccc1Cl = 0 (no)
• Clc1ccccc1C#[C][Hg][C]#Cc1ccccc1Cl = 0 (no)
• BrP(NC1CCCCCC1)(c1ccccc1)(c1ccccc1)c1ccccc1 = 0 (no)
• CN(C)N(P(N)(Cl)(c1ccccc1)c1ccccc1)P(N)(Cl)(c1ccccc1)c1ccccc1 = 0 (no)
• COc1cc(C2c3cc4c(cc3OC(N3CCOCC3)C2C)OCO4)cc(OC)c1OC (stereo not given) = 0 (no)
• CC(=O)[O-].CC(=O)[O-].O=C(N/N=C/c1cc(Cl)cc(Cl)c1[OH2+])c1ccncc1.[Co+2] = 0 (no)
• CCC1(O)C(=O)OCc2c1cc1n(c2=O)Cc2cc3cc(C)ccc3nc2-1 (stereo not given) = 0 (no)
• Cc1cc([N+](=O)[O-])c2ccccc2[n+]1[O-] = 1 (yes)
• O=C(Nc1ccccc1)c1cc([N+](=O)[O-])ccc1O.[Ni] = 0 (no)

###

# PROCEDURE SUMMARY: NCI Yeast Anticancer Drug Screen. Data for the bub3 strain (AID 167)
# TEST CONTEXT: S. cerevisiae bub3 mutant strain, at 50.0 µM (retest, dose inferred, filed as 5.0), stronger effect = higher value
The panel holds about 79,000 compounds, 15% with a hit somewhere; the sample as a whole holds those more often.
Each item that follows carries a reported growth inhibition.
RECORDED ENDPOINT: growth inhibition (%)

• Cc1ccc(NC(=O)CBr)cc1 = 99
• C[C@]12CC[C@H]3[C@@H](CCC4=CC(=O)CC[C@@H]43)[C@@H]1CC[C@@H]2OC(=O)N(CCCl)N=O = 96
• N#CC(C#N)=NNc1cccc(Cl)c1Cl = 100
• O=C(O)CN1CCN(CC(=O)O)CC(=O)[O][Hg][O]C(=O)C1 = 100
• O=C(OCC(CCl)OC(=O)C(Cl)(Cl)Cl)C(Cl)(Cl)Cl (stereo not given) = -4
• CCOP(=O)(OCC)C(O)c1ccccc1Cl (stereo not given) = -6
• CC(C)(C)S.[Hg] = 99
• COCCOCCOC(=O)CBr = 94
• [C-]#[O+].[C-]#[O+].[C-]#[O+].[C-]#[O+].[C-]#[O+].[Mo+2].[Mo+4].[c-]1[c-][c-][cH-][c-]1.[c-]1[c-][c-][cH-][c-]1.c1ccc([PH+](CC[PH+](c2ccccc2)c2ccccc2)c2ccccc2)cc1 = 98
• O=C1OCC2CC3C4C=CC(C4)C3C12 (stereo not given) = 99
